test_target: SHP2 (Homo sapiens (Human), UniProt Q06124)
method_description: SHP2 allosteric inhibition assay (DiFMUP prompt fluorescence)
condition_details: 0.5 nM SHP2 activated with 0.5 μM peptide IRS1_pY1172(dPEG8)pY1222; substrate DiFMUP; 25° C.
pIC50: −log10 of the molar value.
measurement_label: pIC50

[a] C[C@H]1C[C@@H](N)C2(CCN(c3nc(N)c(Sc4cccnc4Cl)c(=O)n3C)CC2)C1
[b] COc1ccc(-c2c(N)nc(N3CCC4(CC3)CO[C@@H](C)[C@H]4N)n(C)c2=O)cc1Cl
[c] Cn1c(N2CCC3(CC2)COC[C@H]3N)nc(N)c(Sc2cccnc2C(F)(F)F)c1=O
[in] Reorder the list: decreasing pIC50. Give the labels in the order requested.
[out] a, c, b
(a: 7.70, c: 7.47, b: 7.18)
